Reference source: PubChem BioAssay AID848

EXPERIMENTAL DETAILS: HUVEC nuclei count loss under TNFa – imaging, Hoechst nuclei count, cytotoxicity control for VCAM1 expression modulator project, primary screen (AID 848);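 further: cells counted after 24 h of TNF alpha exposure following the 1 h pretreatment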
MEASUREMENT SETUP: HUVEC TNFalpha-stimulated, at 2 µM, stronger effect = higher value
Among all 93,000 compounds or so, about 160 (0.17%) were called active. For the sample, actives were picked, then their nearest neighbours and some compounds at random.
PARAMETER MEASURED: cell count reduction (%)
Write down the numeric answer in % and omit the unit.

Observe how each entry below is paired with its result.
COMPOUND: CN1/C(=c2/s/c(=C3/C(=O)N(c4ccccc4)NC3=Nc3ccccc3)n(C)c2=O)C(C)(C)c2ccccc21
cell count reduction [%]: 3.8

COMPOUND: COc1ccc(C(=O)N2CC3(C)CC2CC(C)(C)C3)cc1OC (configuration not stated)
cell count reduction [%]: -11.5

Request: // returns reported cell count reduction for input C=CCn1c(SCC(=O)c2c(N)n(C)c(=O)n(C)c2=O)nc2sc(CC)cc2c1=O
Response: -45.1

Request: Now consider O=C1c2ccccc2C(=O)N1CC1c2ccccc2CCN1S(=O)(=O)c1ccccc1 (configuration not stated) and answer again.
Response: -14.8

Request: Now consider COc1cc(OC)cc(C(=O)NC(=S)N2CCN(c3ccc(C(F)(F)F)cc3[N+](=O)[O-])CC2)c1 and answer again.
Response: -5.1

Request: Now consider Cc1ccc(NC(=S)NCCN2CCOCC2)cc1 and answer again.
Response: -14.3

Request: Now consider Cc1nn(Cc2ccccc2Cl)c(C)c1NC(=O)Cn1nc([N+](=O)[O-])c(Cl)c1C and answer again.
Response: 10.2

Request: Now consider O=C(CSc1ccccc1)Nc1ccc(NC(=O)c2ccco2)cc1 and answer again.
Response: -13

* * *

EXPERIMENTAL DETAILS: HUVEC nuclei count loss under TNFa – imaging, Hoechst nuclei count, cytotoxicity control for VCAM1 expression modulator project, primary screen (AID 848);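 further: cells counted after 24 h of TNF alpha exposure following the 1 h pretreatment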
MEASUREMENT SETUP: HUVEC TNFalpha-stimulated, at 2 µM
About 160 (0.17%) of roughly 93,000 compounds were called active.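 Rule for the calls: active = cell count reduction exceeding the screen mean by over 5 SD, scaled to untreated wells per plate (cut at about 78% in these data); inactive = the rest.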 This is one part of a sample in which actives are shown more often than they occur.
Use one of these outcomes when replying: 1 (active), -1 (inactive)

Past entries and their recorded results:
MOLECULE: O=C(Cn1cc(/C=N/NC(=O)c2cccc(C(F)(F)F)c2)c2ccccc21)Nc1ccc(F)cc1
ASSIGNED CLASS: -1

MOLECULE: CC(C)N(c1ccccc1)c1ncnc(NCCC(=O)O)c1[N+](=O)[O-]
ASSIGNED CLASS: -1

MOLECULE: O=C(NCCCCc1ccccc1)C1CC(c2ccc([N+](=O)[O-])cc2)=NO1 (centres undefined)
ASSIGNED CLASS: -1

Request: I'd appreciate the recorded outcome for COC(=O)CNC(=O)c1ccccc1[N+](=O)[O-] from this test.
Response: -1

Request: Now consider O=C(c1cccc(F)c1)N1CCN(c2ccc([N+](=O)[O-])c(N3CCCCC3)c2)CC1 and answer again.
Response: -1

Request: Now consider CCc1ccc(NC(=O)CN2C(=O)CSC2=O)cc1 and answer again.
Response: -1

Request: Now consider Cc1cc(C)n2nc(C(=O)NC(C)(C)C)nc2n1 and answer again.
Response: -1

Request: Now consider COc1ccc(/C=C(\NC(=O)c2ccc(OC)c(OC)c2)C(=O)NCCc2c[nH]c3ccccc23)cc1 and answer again.
Response: -1

* * *

EXPERIMENTAL DETAILS: HUVEC nuclei count loss under TNFa – imaging, Hoechst nuclei count, cytotoxicity control for VCAM1 expression modulator project, primary screen (AID 848);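 further: cells counted after 24 h of TNF alpha exposure following the 1 h pretreatment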
MEASUREMENT SETUP: HUVEC TNFalpha-stimulated, at 2 µM, stronger effect = higher value
Among all 93,000 compounds or so, about 160 (0.17%) were called active. The sample as a whole holds a higher share of actives than the screen did.
Quick list: cell count reduction per entry.
Write down the numeric answer in % and omit the unit.

Observe how each entry below is paired with its result.
COMPOUND: O=C(CNC(=O)OCc1ccccc1)Oc1cc2oc(=O)cc(-c3ccccc3)c2cc1Cl
OBSERVED MEASUREMENT: 0

COMPOUND: COc1ccc(Nc2nc(Cl)nc(NCc3ccco3)n2)cc1
OBSERVED MEASUREMENT: -4.3

COMPOUND: O=C1CSC(c2ccccc2)N1c1nc(-c2ccc(Cl)cc2Cl)cs1 (stereo unspecified)
OBSERVED MEASUREMENT: 12.4

Request: // returns reported cell count reduction for input CCC(=O)Nc1ccc(C(=O)Nc2cccc(OC)c2)cc1
Response: -29.2

Request: Now consider COc1cc(/C=N/O)cc(Br)c1OS(=O)(=O)c1ccc(C)cc1 and answer again.
Response: -20

Request: Now consider CC1CN(c2nc(-c3ccccc3)nnc2-c2ccccc2)CC(C)O1 (stereo unspecified) and answer again.
Response: -11

* * *

EXPERIMENTAL DETAILS: HUVEC nuclei count loss under TNFa – imaging, Hoechst nuclei count, cytotoxicity control for VCAM1 expression modulator project, primary screen (AID 848);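 further: cells counted after 24 h of TNF alpha exposure following the 1 h pretreatment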
MEASUREMENT SETUP: HUVEC TNFalpha-stimulated, at 2 µM, stronger effect = higher value
Out of some 93,000 compounds screened, about 160 (0.17%) were called active. Shown is part of a subset that was picked to be rich in actives.
PARAMETER MEASURED: cell count reduction (%)
Write down the numeric answer in % and omit the unit.

Observe how each entry below is paired with its result.
MOLECULE: COc1c(Cl)cc(C(=O)Nc2ccc(Cl)cn2)cc1Cl
PARAMETER MEASURED: cell count reduction
UNIT SPEC: %
OBSERVED MEASUREMENT: -4.4
//
MOLECULE: O=C(NN1C(=O)C2C3C=CC(C4CC34)C2C1=O)c1ccc(Cl)cc1 (stereo not given)
PARAMETER MEASURED: cell count reduction
UNIT SPEC: %
OBSERVED MEASUREMENT: 5.4
//
MOLECULE: CCCCNC(=O)c1onc(CSc2cccc(OC)c2)c1C(=O)O
PARAMETER MEASURED: cell count reduction
UNIT SPEC: %
OBSERVED MEASUREMENT: 10.5

Request: // returns reported cell count reduction for input S=c1[nH]nc(-c2ccc(Cl)cc2)n1CC1CCCO1 (stereo not given)
Response: 3.6

Request: Now consider CC(=O)N1CCCc2cc(S(=O)(=O)CCC(=O)N3CCN(c4ccccc4)CC3)ccc21 and answer again.
Response: -22.4

Request: Now consider COc1ccc(CC(=O)Nc2sc(Cc3ccccc3)c(C)c2C(N)=O)cc1 and answer again.
Response: -1.7

Request: Now consider COC(=O)c1ccc(C2C(Oc3ccccc3C)C(=O)N2CCc2ccc(OC)c(OC)c2)cc1 (stereo not given) and answer again.
Response: -15.9

Request: Now consider Fc1ccccc1COc1ccccc1CNCc1ccncc1 and answer again.
Response: 2.6

Request: Now consider CCCNS(=O)(=O)c1ccc2c(c1)CCCN2C(C)=O and answer again.
Response: 100

Request: Now consider COc1cccc(/C=N/NC(=O)C(=O)N2CCCC2)c1 and answer again.
Response: 5.8
